Data origin, for the record: BigSolDB 2.1

- Condition Description: in isopropanol, 318.15 K
Measurement Kind: solubility (mole fraction)

- O=C(NNC(=S)Nc1ccc(Cl)cc1)c1ccncc1: 0.00121

###

- Condition Description: in ethanol, 338.15 K
Measurement Kind: solubility (mole fraction)

• O=C(NNC(=S)Nc1ccc(Cl)cc1)c1ccncc1 = 0.000834

###

- Condition Description: in ethylene glycol, 308.15 K
Measurement Kind: solubility (mole fraction)

* O=C(NNC(=S)Nc1ccc(Cl)cc1)c1ccncc1 | 0.00841

###

- Condition Description: in propylene glycol, 298.15 K
Measurement Kind: solubility (mole fraction)

• O=C(NNC(=S)Nc1ccc(Cl)cc1)c1ccncc1 = 0.00738

###

- Condition Description: in isopropanol, 308.15 K
Measurement Kind: solubility (mole fraction)

* O=C(NNC(=S)Nc1ccc(Cl)cc1)c1ccncc1 | 0.00121

###

- Condition Description: in ethylene glycol, 338.15 K
Measurement Kind: solubility (mole fraction)

• O=C(NNC(=S)Nc1ccc(Cl)cc1)c1ccncc1 = 0.0104

###

- Condition Description: in propylene glycol, 318.15 K
Measurement Kind: solubility (mole fraction)

- O=C(NNC(=S)Nc1ccc(Cl)cc1)c1ccncc1: 0.00848

###

- Condition Description: in ethylene glycol, 298.15 K
Measurement Kind: solubility (mole fraction)

- O=C(NNC(=S)Nc1ccc(Cl)cc1)c1ccncc1: 0.0077

###

- Condition Description: in ethylene glycol, 328.15 K
Measurement Kind: solubility (mole fraction)

- O=C(NNC(=S)Nc1ccc(Cl)cc1)c1ccncc1: 0.00961

###

- Condition Description: in isopropanol, 328.15 K
Measurement Kind: solubility (mole fraction)

• O=C(NNC(=S)Nc1ccc(Cl)cc1)c1ccncc1 = 0.00129

###

- Condition Description: in isopropanol, 338.15 K
Measurement Kind: solubility (mole fraction)

• O=C(NNC(=S)Nc1ccc(Cl)cc1)c1ccncc1 = 0.00138

###

- Condition Description: in propylene glycol, 328.15 K
Measurement Kind: solubility (mole fraction)

- O=C(NNC(=S)Nc1ccc(Cl)cc1)c1ccncc1: 0.00909

###

- Condition Description: in PEG-400, 318.15 K
Measurement Kind: solubility (mole fraction)

- O=C(NNC(=S)Nc1ccc(Cl)cc1)c1ccncc1: 0.12

###

- Condition Description: in ethanol, 318.15 K
Measurement Kind: solubility (mole fraction)

* O=C(NNC(=S)Nc1ccc(Cl)cc1)c1ccncc1 | 0.000743

###

- Condition Description: in isopropanol, 298.15 K
Measurement Kind: solubility (mole fraction)

• O=C(NNC(=S)Nc1ccc(Cl)cc1)c1ccncc1 = 0.00113

###

- Condition Description: in PEG-400, 328.15 K
Measurement Kind: solubility (mole fraction)

• O=C(NNC(=S)Nc1ccc(Cl)cc1)c1ccncc1 = 0.126

###

- Condition Description: in propylene glycol, 308.15 K
Measurement Kind: solubility (mole fraction)

* O=C(NNC(=S)Nc1ccc(Cl)cc1)c1ccncc1 | 0.00789
